# TARGET ENTITY: T1, human MSLN-R3 protein (human, UniProt Q13421 487-598)
# T1 construct: also called hMSLN-R3
# T1 sequence (Q13421 495-606, form in doubt): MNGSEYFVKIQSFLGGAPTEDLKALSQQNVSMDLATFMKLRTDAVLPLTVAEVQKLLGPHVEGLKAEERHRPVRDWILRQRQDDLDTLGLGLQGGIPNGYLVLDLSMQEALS
# ASSAY PROCEDURE: ELISA on coated antigen, antibody 0.01 nM
Documented OD450 across a set of binders
Your answer should be a plain number; it is taken to be in OD450.

>  <BINDER>
F7.44.20 (scFv, not shown: small tags and cut ends, also called S009-F7.44.20 (parental variable regions, in the humanized-antibody ELISA)) scFv: EVQLQQSGPELVKPGASVKIPCKASGYTFTDYNMDWVKQSHGKSLEWIGDINPSTGGTIYNQKFNGKATLTEDKSASTVYMEFRSLTSDDTAVYYCARRRIGTGYFDVWGTGTTVTVSSGGGGSGGGGSGGGGSQIVLTQSPALMSASPGEKVTLTCSASSSVISSYLSWYQQKPGSSPKLLIYRTSNLASGVPARFSGSGSGTSYSLTISSMEAEDAASYFCHQWSSFPYTFGGGTKLEIK

>  <QUANTITY MEASURED>
OD450

>  <RECORDED RESULT>
0.04

$$$$
>  <BINDER>
F7.44.20-H3 (scFv, not shown: small tags and cut ends, also called S009-F7.44.20 humanized antibody VH1 + VL3) scFv: EVQLVQSGAEVKKPGASVKVSCKASGYTFTDYNMDWVRQAPGQGLEWMGDINPSTGGTIYNQKFNGRVTMTEDKSTSTVYMELSSLRSEDTAVYYCARRRIGTGYFDVWGQGTTVTVSSGGGGSGGGGSGGGGSEIVLTQSPATLSLSPGERATLSCSASSSVISSYLSWYQQKPGQSPRLLIYRTSNLASGIPARFSGSGSGTDYTLTISSLEPEDFAVYYCHQWSSFPYTFGGGTKVEIK

>  <QUANTITY MEASURED>
OD450

>  <RECORDED RESULT>
0.04

$$$$
>  <BINDER>
F7.44.20-H9 (scFv, not shown: small tags and cut ends, also called S009-F7.44.20 humanized antibody VH2 + VL1) scFv: EVQLVQSGAEVKKPGASVKVSCKASGYTFTDYNMDWVRQAPGQGLEWMGDINPSTGGTIYNQKFNGRVTMTEDKSASTVYMELSSLRSEDTAVYYCARRRIGTGYFDVWGQGTTVTVSSGGGGSGGGGSGGGGSEIVLTQSPDFQSVTPKEKVTITCSASSSVISSYLSWYQQKPDQSPKLLIYRTSNLASGVPSRFSGSGSGTDFTLTINSLEAEDAATYYCHQWSSFPYTFGGGTKVEIK

>  <QUANTITY MEASURED>
OD450

>  <RECORDED RESULT>
0.04

$$$$
>  <BINDER>
F7.44.20-H14 (scFv, not shown: small tags and cut ends, also called S009-F7.44.20 humanized antibody VH2a + VL2) scFv: EVQLVQSGAEVKKPGASVKVSCKASGYTFTDYNMDWVRQAPGQGLEWMGDINPSTGGTIYNQKFSGRVTMTEDKSASTVYMELSSLRSEDTAVYYCARRRIGTGYFDVWGQGTTVTVSSGGGGSGGGGSGGGGSEIVLTQSPDFQSVTPKEKVTITCSASSSVISSYLSWYQQKPDQSPKLLIYRTSNLASGVPSRFSGSGSGTDYTLTINSLEAEDAATYYCHQWSSFPYTFGGGTKVEIK

>  <QUANTITY MEASURED>
OD450

>  <RECORDED RESULT>
0.04

$$$$
>  <BINDER>
F7.44.20-H2 (scFv, not shown: small tags and cut ends, also called S009-F7.44.20 humanized antibody VH1 + VL2) scFv: EVQLVQSGAEVKKPGASVKVSCKASGYTFTDYNMDWVRQAPGQGLEWMGDINPSTGGTIYNQKFNGRVTMTEDKSTSTVYMELSSLRSEDTAVYYCARRRIGTGYFDVWGQGTTVTVSSGGGGSGGGGSGGGGSEIVLTQSPDFQSVTPKEKVTITCSASSSVISSYLSWYQQKPDQSPKLLIYRTSNLASGVPSRFSGSGSGTDYTLTINSLEAEDAATYYCHQWSSFPYTFGGGTKVEIK

>  <QUANTITY MEASURED>
OD450

>  <RECORDED RESULT>
0.05

$$$$

Proceeding to the next binder to report its OD450.
query: Using the record for Tab111 (scFv, not shown: small tags and cut ends, also called YP218 VL-(G4S)3-VH-his antibody; positive control) scFv: DVVMTQTPASVSEPVGGTVTIKCQASQRISSYLSWYQQKPGQRPKLLIFGASTLASGVPSRFKGSGSGTEYTLTISDLECADAATYYCQSYAYFDSNNWHAFGGGTEVVVGGGGSGGGGSGGGGSQQQLEESGGGLVKPEGSLTLTCKASGFDLGFYFYACWVRQAPGKGLEWIACIYTAGSGSTYYASWAKGRFTISKASSTTVTLQMTSLAAADTATYFCARSTANTRSTYYLNLWGPGTLVTVSS , report its OD450.
result: 0.05
